# pEC50 values compiled below
- target or test system: human F508del CFTR (Homo sapiens, UniProt P13569, DEL508-508)
- Sequence (P13569 with tags, fused parts or gaps DEL508-508): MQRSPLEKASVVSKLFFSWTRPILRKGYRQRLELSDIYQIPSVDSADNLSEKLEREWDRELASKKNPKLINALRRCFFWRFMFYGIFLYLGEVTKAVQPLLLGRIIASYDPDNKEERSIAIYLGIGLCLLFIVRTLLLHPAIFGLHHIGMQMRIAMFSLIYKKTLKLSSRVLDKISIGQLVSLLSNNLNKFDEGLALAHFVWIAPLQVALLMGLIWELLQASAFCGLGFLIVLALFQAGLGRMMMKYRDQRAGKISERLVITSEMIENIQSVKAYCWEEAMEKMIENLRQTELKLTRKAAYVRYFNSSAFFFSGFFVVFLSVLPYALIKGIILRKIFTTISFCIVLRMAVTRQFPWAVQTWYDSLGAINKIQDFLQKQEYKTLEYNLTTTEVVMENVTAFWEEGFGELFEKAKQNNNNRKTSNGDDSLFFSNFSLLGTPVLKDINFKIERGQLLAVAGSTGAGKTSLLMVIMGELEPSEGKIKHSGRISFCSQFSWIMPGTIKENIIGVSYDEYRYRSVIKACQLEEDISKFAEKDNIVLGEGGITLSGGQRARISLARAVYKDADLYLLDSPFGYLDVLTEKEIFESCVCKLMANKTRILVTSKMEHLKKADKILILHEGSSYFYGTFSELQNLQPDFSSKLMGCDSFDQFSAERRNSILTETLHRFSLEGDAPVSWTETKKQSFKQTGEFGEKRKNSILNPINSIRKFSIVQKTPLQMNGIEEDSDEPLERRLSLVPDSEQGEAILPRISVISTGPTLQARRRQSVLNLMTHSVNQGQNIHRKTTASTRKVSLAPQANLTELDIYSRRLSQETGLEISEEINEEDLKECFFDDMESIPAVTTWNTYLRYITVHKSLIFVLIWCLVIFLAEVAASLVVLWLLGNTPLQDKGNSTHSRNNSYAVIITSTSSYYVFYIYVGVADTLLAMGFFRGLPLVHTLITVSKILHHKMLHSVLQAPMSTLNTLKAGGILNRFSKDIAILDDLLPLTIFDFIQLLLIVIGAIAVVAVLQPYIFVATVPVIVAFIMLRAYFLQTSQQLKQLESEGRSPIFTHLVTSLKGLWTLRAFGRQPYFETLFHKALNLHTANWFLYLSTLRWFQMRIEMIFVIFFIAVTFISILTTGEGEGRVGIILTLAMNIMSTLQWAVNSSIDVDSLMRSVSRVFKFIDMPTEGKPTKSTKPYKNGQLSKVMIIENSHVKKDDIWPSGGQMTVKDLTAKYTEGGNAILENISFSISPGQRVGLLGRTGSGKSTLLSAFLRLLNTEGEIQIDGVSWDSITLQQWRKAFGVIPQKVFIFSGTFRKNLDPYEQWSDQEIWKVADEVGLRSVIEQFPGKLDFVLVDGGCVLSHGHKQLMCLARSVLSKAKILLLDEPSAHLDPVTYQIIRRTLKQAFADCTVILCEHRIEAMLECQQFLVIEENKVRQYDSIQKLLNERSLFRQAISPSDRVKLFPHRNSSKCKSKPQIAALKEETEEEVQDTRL
- assay details: CFTR-YFP High Throughput Assay
- cond: FRT cells expressing human F508del CFTR and YFP
pEC50: −log10 of the molar value.

For orientation, consider the following solved cases.
CCN(C(=O)c1nn(C[C@@H](O)COC)c(=O)c2c1c1ccccc1n2C)c1ccccc1 | > 5.00
CCN(C(=O)c1nn(-c2ccc(C)cc2)c(=O)c2c1c1cc(Cl)ccc1n2C)c1ccccc1 | > 5.00

pEC50 in this record for "CCN(C(=O)c1nn(-c2ccc(OC)cc2)c(=O)c2c1c1ccccc1n2C)c1ccccc1" : < 4.70

Entry under test: "CCN(C(=O)Cn1nc(-c2ccc(S(N)(=O)=O)cc2)c2ccc(OC)cc2c1=O)c1ccc(OC(F)F)cc1" . Its pEC50 was > 5.00
